Test system: NCI-H1618 multicellular tumor spheroid viability
Experiment: Anticancer human tumor NCI-H1618 cell line growth inhibition;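 note: spheroids exposed to agents for 7 days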
Conditions: second compound 0.3 µM; first compound 3.16 µM; active compounds read low
Decide using viability, T/C alone. Strictly below 3%: yes. Equal to or above 3%: no.

molecule	class.label
COc1ccc([C@@H](O)c2cc(-c3ncnc4cc(N5CCOCC5)ccc34)c(F)cc2Cl)nn1 + CC[C@@]1(O)C(=O)OCc2c1cc1n(c2=O)Cc2cc3c(CN(C)C)c(O)ccc3nc2-1	yes
[2H]c1nc(C)nc([2H])c1-c1cc(NC[C@@H](C)c2cccc3c(C(=O)NC)ccnc23)ncn1 + CC[C@@]1(O)C(=O)OCc2c1cc1n(c2=O)Cc2cc3c(CN(C)C)c(O)ccc3nc2-1	no
CC1COCCN1c1cc(-c2ccnn2C)c2ccnc(-c3ccn[nH]3)c2n1 (stereo unspecified) + CC[C@@]1(O)C(=O)OCc2c1cc1n(c2=O)Cc2cc3c(CN(C)C)c(O)ccc3nc2-1	yes
COc1cc(C)[nH]c(=O)c1CN1CCc2c(Cl)cc(C(OC)C3COC3)c(Cl)c2C1=O (stereo unspecified) + CC[C@@]1(O)C(=O)OCc2c1cc1n(c2=O)Cc2cc3c(CN(C)C)c(O)ccc3nc2-1	no
Cc1cc(C)c(CNC(=O)c2cc(-c3ccc(CN4CCOCC4)cc3)cc3c2cnn3C2CCCC2)c(=O)[nH]1 + CC[C@@]1(O)C(=O)OCc2c1cc1n(c2=O)Cc2cc3c(CN(C)C)c(O)ccc3nc2-1	yes

stdin: is_below(viability, T/C, 3%) for CC(C)n1c(=O)n(C)c2cnc3cc(F)c(-c4ccc(OCCCN5CCCCC5)nc4)cc3c21 + CC[C@@]1(O)C(=O)OCc2c1cc1n(c2=O)Cc2cc3c(CN(C)C)c(O)ccc3nc2-1 ?
stdout: no
